- Test system: MCF7;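 also: secreted proteins added to cultured cells, EdU pulse at the end, nuclei found by Hoechst imaging, EdU status from nuclear versus surrounding ring intensity ratio, PBS as neutral control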
- procedure summary: percentage of EdU-negative (G0-arrested) nuclei per well, 72 h; higher = more G0 arrest
- condition info: protein concentration 0.0225 µM; reference: sequence is the full UniProt precursor, the tested protein was the secreted form or ectodomain

>  <sequence input>
MFHVSFRYIFGLPPLILVLLPVASSDCDIEGKDGKQYESVLMVSIDQLLDSMKEIGSNCLNNEFNFFKRHICDANKEGMFLFRAARKLRQFLKMNSTGDFDLHLLKVSEGTTILLNCTGQVKGRKPAALGEAQPTKSLEENKSLKEQKKLNDLCFLKRLLQEIKTCWNKILMGTKEH

>  <percentage of EdU-negative>
27.6%

$$$$
>  <sequence input>
MQRVSGLLSWTLSRVLWLSGLSEPGAARQPRIMEEKALEVYDLIRTIRDPEKPNTLEELEVVSESCVEVQEINEEEYLVIIRFTPTVPHCSLATLIGLCLRVKLQRCLPFKHKLEIYISEGTHSTEEDINKQINDKERVAAAMENPNLREIVEQCVLEPD [Q9H5X1]

>  <percentage of EdU-negative>
24.6%

$$$$
>  <sequence input>
MGKGDPKKPRGKMSSYAFFVQTCREEHKKKHPDASVNFSEFSKKCSERWKTMSAKEKGKFEDMAKADKARYEREMKTYIPPKGETKKKFKDPNAPKRPPSAFFLFCSEYRPKIKGEHPGLSIGDVAKKLGEMWNNTAADDKQPYEKKAAKLKEKYEKDIAAYRAKGKPDAAKKGVVKAEKSKKKKEEEEDEEDEEDEEEEEDEEDEDEEEDDDDE

>  <percentage of EdU-negative>
23.1%

$$$$
>  <sequence input>
MLQLWKLVLLCGVLTGTSESLLDNLGNDLSNVVDKLEPVLHEGLETVDNTLKGILEKLKVDLGVLQKSSAWQLAKQKAQEAEKLLNNVISKLLPTNTDIFGLKISNSLILDVKAEPIDDGKGLNLSFPVTANVTVAGPIIGQIINLKASLDLLTAVTIETDPQTHQPVAVLGECASDPTSISLSLLDKHSQIINKFVNSVINTLKSTVSSLLQKEICPLIRIFIHSLDVNVIQQVVDNPQHKTQLQTLI [Q96DR5]

>  <percentage of EdU-negative>
27.4%

$$$$
>  <sequence input>
MLPWLLVFSALGIQAWGDSSWNKTQAKQVSEGLQYLFENISQLTEKGLPTDVSTTVSRKAWGAEAVGCSIQLTTPVNVLVIHHVPGLECHDQTVCSQRLRELQAHHVHNNSGCDVAYNFLVGDDGRVYEGVGWNIQGVHTQGYNNISLGFAFFGTKKGHSPSPAALSAMENLITYAVQKGHLSSSYVQPLLGKGENCLAPRQKTSLKKACPGVVPRSVWGARETHCPRMTLPAKYGIIIHTAGRTCNISDECRLLVRDIQSFYIDRLKSCDIGYNFLVGQDGAIYEGVGWNVQGSSTPGYDDIALGITFMGTFTGIPPNAAALEAAQDLIQCAMVKGYLTPNYLLVGHSDVARTLSPGQALYNIISTWPHFKH [Q96LB8]

>  <percentage of EdU-negative>
24.7%

$$$$
>  <sequence input>
MKFSPAHYLLPLLPALVLSTRQDYEELEKQLKEVFKERSTILRQLTKTSRELDGIKVNLQSLKNDEQSAKTDVQKLLELGQKQREEMKSLQEALQNQLKETSEKAEKHQATINFLKTEVERKSKMIRDLQNENKSLKNKLLSGNKLCGIHAEESKKIQAQLKELRYGKKDLLFKAQQLTDLEQKLAVAKNELEKAALDRESQMKAMKETVQLCLTSVFRDQPPPPLSLITSNPTRMLLPPRNIASKLPDAAAKSKPQQSASGNNESSQVESTKEGNPSTTACDSQDEGRPCSMKHKESPPSNATAETEPIPQKLQMPPCSECEVKKAPEKPLTSFEGMAAREEKIL [Q86TE4]

>  <percentage of EdU-negative>
26%

$$$$
>  <sequence input>
MASLRVERAGGPRLPRTRVGRPAALRLLLLLGAVLNPHEALAQPLPTTGTPGSEGGTVKNYETAVQFCWNHYKDQMDPIEKDWCDWAMISRPYSTLRDCLEHFAELFDLGFPNPLAERIIFETHQIHFANCSLVQPTFSDPPEDVLLAMIIAPICLIPFLITLVVWRSKDSEAQA

>  <percentage of EdU-negative>
26.4%

$$$$
>  <sequence input>
MKASSLAFSLLSAAFYLLWTPSTGLKTLNLGSCVIATNLQEIRNGFSEIRGSVQAKDGNIDIRILRRTESLQDTKPANRCCLLRHLLRLYLDRVFKNYQTPDHYTLRKISSLANSFLTIKKDLRLCHAHMTCHCGEEAMKKYSQILSHFEKLEPQAAVVKALGELDILLQWMEETE [Q9NYY1]

>  <percentage of EdU-negative>
25.2%

$$$$
>  <sequence input>
MNLAISIALLLTVLQVSRGQKVTSLTACLVDQSLRLDCRHENTSSSPIQYEFSLTRETKKHVLFGTVGVPEHTYRSRTNFTSKYNMKVLYLSAFTSKDEGTYTCALHHSGHSPPISSQNVTVLRDKLVKCEGISLLAQNTSWLLLLLLSLSLLQATDFMSL

>  <percentage of EdU-negative>
27.7%

$$$$
>  <sequence input>
MAAALFVLLGFALLGTHGASGAAGFVQAPLSQQRWVGGSVELHCEAVGSPVPEIQWWFEGQGPNDTCSQLWDGARLDRVHIHATYHQHAASTISIDTLVEEDTGTYECRASNDPDRNHLTRAPRVKWVRAQAVVLVLEPGTVFTTVEDLGSKILLTCSLNDSATEVTGHRWLKGGVVLKEDALPGQKTEFKVDSDDQWGEYSCVFLPEPMGTANIQLHGPPRVKAVKSSEHINEGETAMLVCKSESVPPVTDWAWYKITDSEDKALMNGSESRFFVSSSQGRSELHIENLNMEADPGQYRCNGTSSKGSDQAIITLRVRSHLAALWPFLGIVAEVLVLVTIIFIYEKRRKPEDVLDDDDAGSAPLKSSGQHQNDKGKNVRQRNSS

>  <percentage of EdU-negative>
22.7%

$$$$
>  <sequence input>
MASPGCLWLLAVALLPWTCASRALQHLDPPAPLPLVIWHGMGDSCCNPLSMGAIKKMVEKKIPGIYVLSLEIGKTLMEDVENSFFLNVNSQVTTVCQALAKDPKLQQGYNAMGFSQGGQFLRAVAQRCPSPPMINLISVGGQHQGVFGLPRCPGESSHICDFIRKTLNAGAYSKVVQERLVQAEYWHDPIKEDVYRNHSIFLADINQERGINESYKKNLMALKKFVMVKFLNDSIVDPVDSEWFGFYRSGQAKETIPLQETSLYTQDRLGLKEMDNAGQLVFLATEGDHLQLSEEWFYAHIIPFLG

>  <percentage of EdU-negative>
25.6%

$$$$

Provenance of the data: the supplement of paper PMC11316812
